Just for reference, patent US20040176361A1 is where these values come from.

EXPERIMENTAL ENDPOINT: melting point

- CN1CCN(c2cc3ccccc3c(=O)[nH]2)[C@@H](CO)C1 [Example 151]: 172 to 174 °C
- COCOc1cccc2c(=O)[nH]c(CCCCN(C)C)cc12 [Example 187]: 109 to 111 °C
- COCOc1cccc2c(=O)[nH]c(C3CCN(C)CC3)cc12 [Example 171]: 194 to 196 °C

Lab note: each compound below needs its melting point filled in.
1. CN1CC=C(c2cc3ccccc3c(=O)[nH]2)CC1 [Example 190]
2. CN(C)C1CCN(c2cc3ccc(Br)cc3c(=O)[nH]2)CC1 [Example 31]
3. CN1CCN(c2cc3c(Br)cccc3c(=O)[nH]2)CC1 [Example 22]

Solution:
222 to 223 °C
227 to 228 °C (dec.)
240 to 241 °C (dec.)
